pKi: −log10 of the molar value.
Compiled notes: published pKi values involving Orexin receptor type 2 (Homo sapiens, UniProt O43614).
readoutLabel: pKi

compound	measurementTarget	limitSign	resultValue
Cc1ccc(-n2nccn2)c(C(=O)N2CCC[C@@H](COc3nccc4ccccc34)[C@@H]2C)c1 (stereo in doubt)	Orexin receptor type 2 (Homo sapiens, UniProt O43614)	=	8.68
COc1ccc(-n2nccn2)c(C(=O)N2CCC[C@@H](Nc3ncc(C(F)(F)F)cn3)[C@@H]2C)c1	Orexin receptor type 2 (Homo sapiens, UniProt O43614)	=	6.37
Cc1nc(C(=O)N2CCCCC2C#Cc2ccc3ccccc3n2)c(-c2ccccc2)s1 (stereo not shown)	Orexin receptor type 2 (Homo sapiens, UniProt O43614)	<	6.12
C[C@@H]1[C@H]2C[C@@H](Oc3ccc(C(F)(F)F)cn3)[C@H](C2)N1C(=O)c1ncccc1-n1nccn1 (relative stereo)	Orexin receptor type 2 (Homo sapiens, UniProt O43614)	=	5.62
[2H]C1([2H])[C@H]2C[C@@H]([C@@H]1Oc1ccc(C(F)(F)F)cn1)N(C(=O)c1cccc(F)c1-n1nccn1)[C@@H]2C	Orexin receptor type 2 (Homo sapiens, UniProt O43614)	=	6.25
C[C@@H]1[C@H]2C[C@@H](Oc3cnc4cc(F)c(F)cc4n3)[C@H](C2)N1C(=O)c1cccc(F)c1-n1nccn1 (relative stereo)	Orexin receptor type 2 (Homo sapiens, UniProt O43614)	=	6.91
Cc1ccc(-n2nccn2)c(C(=O)N2CCC[C@@H](COc3ccccn3)[C@@H]2C)c1	Orexin receptor type 2 (Homo sapiens, UniProt O43614)	=	7.41

---

Compiled notes: published pKi values involving UniProtKB O43614.
pKi: −log10 of the molar value.

compound	limitSign	pKi
C[C@@H]1[C@H]2C[C@@H](Oc3cnc4cc(F)ccc4n3)[C@H](C2)N1C(=O)c1ccccc1-n1nccn1 (relative stereo)	=	6.97
Cc1ccc(-n2nccn2)c(C(=O)N2[C@H](C)[C@@H]3CC[C@H]2[C@H](Oc2ccc(C(F)(F)F)cn2)C3)n1	=	5.96
Cc1cnc(C(=O)N2[C@H](C)[C@H]3C[C@@H](Oc4cnc(C(F)(F)F)cn4)[C@@H]2C3)c(-n2nccn2)c1 (relative stereo)	<	5.00
CC1C2CC(Nc3cnc(C(F)(F)F)cn3)C(C2)N1C(=O)c1ccccc1-n1nccn1 (racemic)	=	6.20
C[C@@H]1CC[C@@H](C#Cc2cccc(CO)n2)CN1C(=O)c1ccccc1-n1nccn1	=	8.25
O=C(c1cccc(F)c1I)N1CC2CN(c3cnc4cc(F)c(F)cc4n3)CC2C1 (stereo not drawn)	=	6.80

---

Compiled notes: published pKi values involving Orexin receptor type 2 (Homo sapiens, UniProt O43614).
pKi: −log10 of the molar value.

compound	limitSign	pKi
Cc1ccc(-c2ncc(C)o2)c(C(=O)N2CC3CN(c4cc(N(C)C)nc(C)n4)CC3C2)n1 (stereo not shown)	=	6.12
Cc1ccc(-n2nccn2)c(C(=O)N2C(CC(C)C)C3CC(Oc4ccc(C(F)(F)F)cn4)C2C3)n1 (racemic)	=	5.82
Cc1nc(C(=O)N2CCCCC2C#Cc2cc3ccccc3cn2)c(-c2ccccc2)s1 (stereo not shown)	<	7.00
C[C@H]1[C@H](Oc2ccc(C(F)(F)F)cn2)CCCN1C(=O)c1ccc(F)cc1-n1nccn1	=	6.12

---

pKi: −log10 of the molar value.
Compiled notes: published pKi values involving Orexin receptor type 2 (Homo sapiens, UniProt O43614).

molecule	pKi
Cc1ccc(-n2nccn2)c(C(=O)N2C(C)C3CC(Oc4cnc(C(F)(F)F)cn4)C2C3)n1 (racemic)	< 5.00
O=C(c1ccccc1-c1ncccn1)N1[C@H](CF)[C@@H]2CC[C@H]1[C@H](Oc1ccc(C(F)(F)F)cn1)C2	< 5.00
Cc1cnc(-n2nccn2)c(C(=O)N2CCC[C@@H](Oc3ncc(Cl)cn3)[C@@H]2C)c1	< 5.00
O=C(c1cccc(F)c1-c1ncccn1)N1[C@H](CF)[C@@H]2CC[C@H]1[C@H](Oc1ccc(C(F)(F)F)cn1)C2	< 5.00
Cc1ccc(C(=O)N2CCC[C@@H](Nc3nnc(C(F)(F)F)s3)[C@@H]2C)c(-n2nccn2)n1 (relative stereo)	< 5.00
Cc1nc(C(=O)N2CCCCC2C#Cc2ccc3ccccc3c2)c(-c2ccccc2)s1 (stereo not drawn)	< 6.12
